Literature-derived Ki for human PDE10A2 (Homo sapiens (Human), UniProt Q9Y233) follows.
experimental_readout: Ki (nM)

compound: COc1ccc(-n2c(CCN3C(=O)c4cccc(C)c4C3=O)nc3ccccc3c2=O)cc1
study_target: human PDE10A2 (Homo sapiens (Human), UniProt Q9Y233)
experimental_readout: Ki
censor_symbol: =
reading: 61
//
compound: Cc1ncc(-c2cnc(C(C)(C)O)cc2C)c(OC[C@H]2C[C@@H]2c2ccccn2)n1
study_target: human PDE10A2 (Homo sapiens (Human), UniProt Q9Y233)
experimental_readout: Ki
censor_symbol: =
reading: 0.1
//
compound: CCc1ccc([C@@H]2C[C@@H]2COc2nc(C)ncc2C2CCC3(CC2)OCCO3)nc1
study_target: human PDE10A2 (Homo sapiens (Human), UniProt Q9Y233)
experimental_readout: Ki
censor_symbol: =
reading: 2.98
//
compound: Cc1nc([C@H]2C[C@@H]2c2nc3ccccc3n2C)cc(-n2nc(C)nc2-c2ccccn2)n1 (stereo in doubt)
study_target: human PDE10A2 (Homo sapiens (Human), UniProt Q9Y233)
experimental_readout: Ki
censor_symbol: >
reading: 75
//
compound: COc1ccc([C@H]2C[C@@H]2COc2nc(C)ncc2-c2ccc(-c3nnnn3C)nc2)nc1
study_target: human PDE10A2 (Homo sapiens (Human), UniProt Q9Y233)
experimental_readout: Ki
censor_symbol: =
reading: 1.78
//
compound: COc1cccc([C@H]2C[C@@H]2COc2nc(C)ncc2C2CCC(=O)CC2)n1
study_target: human PDE10A2 (Homo sapiens (Human), UniProt Q9Y233)
experimental_readout: Ki
censor_symbol: =
reading: 2.96
//
compound: Cc1nc(N2CC(c3nc4cccc(C(F)(F)F)c4[nH]3)C2)cc(-n2nc(C)nc2C)n1
study_target: human PDE10A2 (Homo sapiens (Human), UniProt Q9Y233)
experimental_readout: Ki
censor_symbol: >
reading: 75
//
compound: Cc1nc(N2CC(c3nc4c(C(F)(F)F)cccc4n3C)C2)cc(-n2nc(C)nc2C)n1
study_target: human PDE10A2 (Homo sapiens (Human), UniProt Q9Y233)
experimental_readout: Ki
censor_symbol: =
reading: 37

###

Reported Ki against human PDE10A2 (Homo sapiens (Human)), gathered from multiple publications, appears below.
experimental_readout: Ki (nM)

compound: Cc1nc([C@H]2C[C@@H]2c2nc3ccccc3s2)cc(-n2nc(C)nc2C)n1
experimental_readout: Ki
reading: 69.5
--
compound: Cc1ccc([C@H]2C[C@@H]2COc2nc(C)ncc2-c2cc(C#N)c(=O)n(C)c2C)nc1
experimental_readout: Ki
reading: 0.426
--
compound: Cc1nc(C)n(-c2cc([C@H]3C[C@@H]3c3nc4ccccc4n3C)nc(OCCF)n2)n1 (relative stereo)
experimental_readout: Ki
reading: 1.2
--
compound: Cc1ccc([C@H]2C[C@@H]2COc2nc(C)ncc2-c2ccc(=O)n(C(C)C)c2)nc1
experimental_readout: Ki
reading: 0.823
--
compound: O=C1c2ccccc2C(=O)N1CCc1nc2ccccc2c(=O)n1-c1cccc(-c2ccccc2)c1
experimental_readout: Ki
reading: 14
--
compound: CCC(O)c1ccc(-c2cnc(C)nc2OC[C@H]2C[C@@H]2c2ccc(C)cn2)cn1 (stereo partly shown)
experimental_readout: Ki
reading: 0.16
--
compound: Cc1ccc([C@H]2C[C@@H]2COc2nc(C)ncc2-c2ccc3ncc(C)n3c2)nc1
experimental_readout: Ki
reading: 0.39
--
compound: Cc1ccc(-c2cc(N3CC(c4nc5ccccc5n4C)C3)nc(C)n2)nc1
experimental_readout: Ki
reading: 1
--
compound: COc1ccc([C@H]2C[C@@H]2COc2nc(C)ncc2-c2ccc(C3(O)COC3)nc2)nc1
experimental_readout: Ki
reading: 0.16
--
compound: Cc1ccc([C@H]2C[C@@H]2COc2nc(C)ncc2-c2ccc(F)c(C)c2)nc1
experimental_readout: Ki
reading: 1.13
--
compound: Cc1cn(-c2cc(N3CC(c4nc5ccccc5n4C)C3)nc(C(F)(F)F)n2)nn1
experimental_readout: Ki
reading: 5.6
--
compound: COc1ccc([C@H]2C[C@@H]2COc2nc(C)ncc2-c2cc(C)c(=O)n(C)c2)nc1
experimental_readout: Ki
reading: 0.727
--
compound: CCc1nc(C)nn1-c1cc(N2CC(c3nc4ccccc4n3C)C2)nc(OC)n1
experimental_readout: Ki
reading: 0.4
--
compound: Cc1nc(C)n(-c2cc([C@@H]3C[C@H]3c3nc4ccccc4n3C)nc(O)n2)n1 (relative stereo)
experimental_readout: Ki
reading: 19
--
compound: COc1ccc([C@H]2C[C@@H]2COc2nc(C)ncc2-c2cc(=O)n(C)cc2[S+](C)[O-])nc1 (single isomer, unassigned)
experimental_readout: Ki
reading: 63.8
--
compound: COc1ccc([C@H]2C[C@@H]2COc2nc(C)ncc2-c2c[nH]nn2)nc1
experimental_readout: Ki
reading: 1.36
